Target: T1, Human HM1.24 on RPMI 8226 multiple myeloma cells (UniProt Q10589 1-161)
T1 chain: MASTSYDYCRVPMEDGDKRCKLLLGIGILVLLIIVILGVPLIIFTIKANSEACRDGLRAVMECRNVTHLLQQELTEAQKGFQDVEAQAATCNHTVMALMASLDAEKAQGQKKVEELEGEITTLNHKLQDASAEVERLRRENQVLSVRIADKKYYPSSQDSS
Test: flow cytometry
quantity.measured: pEC50
pEC50 is defined as minus the log10 of a concentration measured in mol/L.

Consider the worked cases shown below.
{"columns": ["binder", "pEC50"],
 "data": [
  ["HM1.24_H2L4 (antibody, V domains shown) VH: EVQLVESGGGLVKPGGSLRLSCAASGYTFTPYWMQWVRQAPGKGLEWMGSIFPGDGDTRYSQSFQGQVTISADKSISTAYMELSSLRSEDTAVYYCARGLRRGGYYFDYWGQGTLVTVSS VL: DIVMTQSPLSLPVTLGQPASISCKASQDVNTAVAWYLQKPGKSPKLLIYSASNRYTGVPDRITGSGSGTDFTLKISRVEAEDVGVYYCQQHYSTPFTFGSGTKLEIKR", 8.45],
  ["H0L0_IgG1_S239D/I332E (antibody, V domains shown) VH: QVQLQQSGAELARPGASVKLSCKASGYTFTPYWMQWVKQRPGQGLEWIGSIFPGDGDTRYSQKFKGKATLTADKSSSTAYMQLSILAFEDSAVYYCARGLRRGGYYFDYWGQGTTLTVSS VL: DIVMTQSHKFMSTSVGDRVSITCKASQDVNTAVAWYQQKPGQSPKLLIYSASNRYTGVPDRITGSGSGTDFTFTISSVQAEDLALYYCQQHYSTPFTFGSGTKLEIK", 8.65],
  ["HM1.24_H2L2 (antibody, V domains shown) VH: EVQLVESGGGLVKPGGSLRLSCAASGYTFTPYWMQWVRQAPGKGLEWMGSIFPGDGDTRYSQSFQGQVTISADKSISTAYMELSSLRSEDTAVYYCARGLRRGGYYFDYWGQGTLVTVSS VL: DIVMTQSPSSLSASVGDRVTITCQASQDVNTAVAWYQQKPDQSPKLLIYSASNRYTGVPDRITGSGSGTDFTLTISSLQAEDVAVYYCQQHYSTPFTFGSGTKLEIKR", 8.23],
  ["HM1.24_H1L2 (antibody, V domains shown) VH: QVQLVQSGAEVKKPGASVKVSCKASGYTFTPYWMQWVRQAPGQGLEWMGSIFPGDGDTRYSQSFQGQVTISADKSISTAYMELSRLRSDDTAVYYCARGLRRGGYYFDYWGQGTLVTVSS VL: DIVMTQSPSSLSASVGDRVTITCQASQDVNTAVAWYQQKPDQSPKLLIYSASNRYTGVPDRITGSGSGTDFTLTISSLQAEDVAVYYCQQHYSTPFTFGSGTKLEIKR", 8.60],
  ["H2L3_Hybrid_S239D/I332E (antibody, V domains shown) VH: EVQLVESGGGLVKPGGSLRLSCAASGYTFTPYWMQWVRQAPGKGLEWMGSIFPGDGDTRYSQSFQGQVTISADKSISTAYMELSSLRSEDTAVYYCARGLRRGGYYFDYWGQGTLVTVSS VL: DIVMTQSPPTLSLSPGERVTLSCRASQDVNTAVAWYQQKPDQSPKLLIYSASNRYTGVPDRITGSGSGTDFTLTISSLQPEDFAVYYCQQHYSTPFTFGSGTKLEIKR", 7.88]
]}

// next entry
[ask] Given the entry H1L3_Hybrid_S239D/I332E (antibody, V domains shown) VH: QVQLVQSGAEVKKPGASVKVSCKASGYTFTPYWMQWVRQAPGQGLEWMGSIFPGDGDTRYSQSFQGQVTISADKSISTAYMELSRLRSDDTAVYYCARGLRRGGYYFDYWGQGTLVTVSS VL: DIVMTQSPPTLSLSPGERVTLSCRASQDVNTAVAWYQQKPDQSPKLLIYSASNRYTGVPDRITGSGSGTDFTLTISSLQPEDFAVYYCQQHYSTPFTFGSGTKLEIKR , report its measured pEC50.
[reply] 8.49
